Hi there, I'd appreciate the recorded growth for every entry that follows.
# System: CCRF-CEM leukemia
# Experiment Summary: NCI-60 one-dose screen, 48 h (100 = growth as untreated, 0 = no growth, -100 = all killed)
# Measurement Parameters: 10 µM unless noted
# Experimental: Growth inhibition of the CCRF-CEM human tumor cell line is measured as a screen for anti-cancer activity. Cells are grown in 96 well plates and exposed to the test compound for 48 hours. Compounds are tested at a single concentration, which is 10^-5 M for most compounds. The reported endpoint is percent growth (GI% or GIPRCNT), where numbers from 0 - 100% represent growth inhibition, and numbers from -100% - 0 represent cell death. For example, a value of 40 represents 60% growth inhibition. […]
This is part of a sample that, as a whole, favours compounds with a hit. Of some 83,000 tested, about 20% had one in any assay.
One number for each entry, in %.

C=C(C)[C@@H]1CC[C@]2(C(N)=O)CC[C@]3(C)[C@H](CC[C@@H]4[C@@]5(C)CCCNC(C)(C)[C@@H]5CC[C@]43C)[C@@H]12 | 52.5
O=C(/C(=C/c1ccc([N+](=O)[O-])cc1)SCc1ccccc1)c1ccc(Cl)cc1 | 9.82
CC1CCN(CCCCCOc2ccc3oc4cc(Cl)ccc4c(=O)c3c2)CC1 | 65.5
CC(C)(C)c1ccc(O)c(Cc2cc(C(C)(C)C)ccc2O)c1 | 0.931

Dear colleague, could you send me growth for each of the items below? Thanks.
1. COc1ccc2nc3c(n2c1)C(=O)C(=O)c1ccccc1-3
2. Cc1c(O)c(=O)ccn1-c1nc2ccccc2s1

a:
1: 20.8; 2: 82.7
